experiment: Test B: Cytotoxicity Assay; format: cell-based; conditions: human, uninfected MT-4 cells, CellTiter-Glo
Reported CC50 at 5 days is given for each of the following compounds.
Hi! Could you send only the number? It should be in µM, unit omitted.

compound	CC50 at 5 days / µM
Cn1nc(NS(C)(=O)=O)c2c(Cl)ccc(-c3ccc(C#CC4(O)CC4)nc3[C@H](Cc3cc(F)cc(F)c3)NC(=O)Cn3nc(C(F)F)c4c3C(F)(F)[C@@H]3C[C@H]43)c21 [Compound 62B]	14.9
Cn1nc(NS(C)(=O)=O)c2c(Cl)ccc(-c3ccc(C#CC4CCCN4)nc3[C@H](Cc3cc(F)cc(F)c3)NC(=O)Cn3nc(C(F)(F)F)c4c3C(F)(F)[C@@H]3C[C@H]43)c21 (stereo partly shown) [Compound 43H]	4.34
Cn1nc(NS(C)(=O)=O)c2c(Cl)ccc(-c3ccc(C#CC4CNCCO4)nc3[C@H](Cc3cc(F)cc(F)c3)NC(=O)Cn3nc(C(F)F)c4c3C(F)(F)[C@@H]3C[C@H]43)c21 (stereo partly shown)	7.51
O=C(Cn1nc(C(F)F)c2c1C(F)(F)CCC2(F)F)N[C@@H](Cc1cc(F)cc(F)c1)c1nc(C#Cc2cnc3[nH]ccc3c2)ccc1-c1cnc2[nH]ccc2c1	1.27
Cn1nc(NS(C)(=O)=O)c2c(Cl)ccc(-c3ccc(C#CC4(O)COC4)nc3[C@H](Cc3cc(F)cc(F)c3)NC(=O)Cn3nc(C(F)(F)F)c4c3C(F)(F)[C@@H]3C[C@H]43)c21	14.3

I'd like to know its CC50 at 5 days. The compound in question is Cn1nc(NS(C)(=O)=O)c2c(Cl)ccc(-c3ccc(C#CC(C)(C)n4cn[nH]c4=O)nc3[C@H](Cc3cc(F)cc(F)c3)NC(=O)Cn3nc(C(F)F)c4c3C(F)(F)[C@@H]3C[C@H]43)c21 [Compound 98D]
10.4

I'd like to know its CC50 at 5 days. The compound in question is O=C(Cn1nc(C(F)F)c2c1C(F)(F)CCC2(F)F)N[C@@H](Cc1cc(F)cc(F)c1)c1ncc(C#CC2CC2)cc1-c1ccc2c(c1)C(=O)NC2
38.4

I'd like to know its CC50 at 5 days. The compound in question is Cn1nc(NS(C)(=O)=O)c2c(Cl)ccc(-c3ccc(C#CC4(O)COC(C)(C)OC4)nc3[C@H](Cc3cc(F)cc(F)c3)NC(=O)Cn3nc(C(F)(F)F)c4c3C(F)(F)[C@@H]3C[C@H]43)c21
8.62

I'd like to know its CC50 at 5 days. The compound in question is Cn1cncc1C#Cc1ccc(-c2cccc3c(NS(C)(=O)=O)nn(C)c23)c([C@H](Cc2cc(F)cc(F)c2)NC(=O)Cn2nc(C(F)(F)F)c3c2C(F)(F)[C@@H]2C[C@H]32)n1
12.5

I'd like to know its CC50 at 5 days. The compound in question is Cn1nc(NS(C)(=O)=O)c2c(Cl)ccc(-c3ccc(C#CC4(C)OCCn5ccnc54)nc3[C@H](Cc3cc(F)cc(F)c3)NC(=O)Cn3nc(C(F)F)c4c3C(F)(F)[C@@H]3C[C@H]43)c21 (stereo partly shown)
29.6

I'd like to know its CC50 at 5 days. The compound in question is Cn1nc(NS(C)(=O)=O)c2c(Cl)ccc(-c3ccc(C#CC4CCCNC4)nc3[C@H](Cc3cc(F)cc(F)c3)NC(=O)Cn3nc(C(F)(F)F)c4c3C(F)(F)[C@@H]3C[C@H]43)c21 (stereo partly shown)
6

I'd like to know its CC50 at 5 days. The compound in question is Cn1nc(NS(C)(=O)=O)c2c(Cl)ccc(-c3ccc(C#CC4(O)CC(F)(F)C4)nc3[C@H](Cc3cccc(F)c3)NC(=O)Cn3nc(C(F)(F)F)c4c3C(F)(F)[C@@H]3C[C@H]43)c21
7.17

I'd like to know its CC50 at 5 days. The compound in question is O=C(Cn1nc(C(F)(F)F)c2c1C(F)(F)[C@@H]1C[C@H]21)N[C@@H](Cc1cc(F)cc(F)c1)c1nc(C#Cc2ccc(=O)[nH]c2)ccc1-c1ccc2c(c1)C(=O)NC2
7.7

I'd like to know its CC50 at 5 days. The compound in question is Cn1nc(NS(C)(=O)=O)c2cccc(-c3ccc(C#CC4(O)CC(F)(F)C4)nc3[C@H](Cc3cc(F)cc(F)c3)NC(=O)Cn3nc(C(F)(F)F)c4c3C(F)(F)[C@@H]3C[C@H]43)c21 [Compound 105D]
6.46

I'd like to know its CC50 at 5 days. The compound in question is CN1CC(O)(C#Cc2ccc(-c3cccc4c(NS(C)(=O)=O)nn(C)c34)c([C@H](Cc3cc(F)cc(F)c3)NC(=O)Cn3nc(C(F)(F)F)c4c3C(F)(F)[C@@H]3C[C@H]43)n2)C1 [Compound 23C]
9.19

I'd like to know its CC50 at 5 days. The compound in question is Cn1nc(NS(C)(=O)=O)c2c(Cl)ccc(-c3ccc(C#CC(C)(C)c4ncc[nH]4)nc3[C@H](Cc3cc(F)cc(F)c3)NC(=O)Cn3nc(C(F)F)c4c3C(F)(F)[C@@H]3C[C@H]43)c21 [Compound 91F]
14.6

I'd like to know its CC50 at 5 days. The compound in question is Cn1nc(NS(C)(=O)=O)c2cccc(-c3ccc(C#CC4(O)CCC4)nc3[C@H](Cc3cc(F)cc(F)c3)NC(=O)Cn3nc(C(F)(F)F)c4c3C(F)(F)[C@@H]3C[C@H]43)c21 [Compound 24D]
15.8

I'd like to know its CC50 at 5 days. The compound in question is Cn1nc(NS(C)(=O)=O)c2c(Cl)ccc(-c3ccc(C#CC(C)(O)c4ccco4)nc3[C@H](Cc3cc(F)cc(F)c3)NC(=O)Cn3nc(C(F)(F)F)c4c3C(F)(F)[C@@H]3C[C@H]43)c21 (stereo partly shown)
11.6

I'd like to know its CC50 at 5 days. The compound in question is CCN1CCO[C@](C)(C#Cc2ccc(-c3ccc(Cl)c4c(NS(C)(=O)=O)nn(C)c34)c([C@H](Cc3cc(F)cc(F)c3)NC(=O)Cn3nc(C(F)F)c4c3C(F)(F)[C@@H]3C[C@H]43)n2)C1
28.6

* * *

Test: Test B: Cytotoxicity Assay
Format: cell-based
Conditions: human, uninfected MT-4 cells, CellTiter-Glo
Protocol: Test B: Cytotoxicity Assay Compound cytotoxicity and the corresponding CC50 values was determined using the same protocol as described in the antiviral assay (Test A) except that uninfected cells were used.
Lab note: anything with CC50 at 5 days below 8 µM is marked rule met; values at 8 µM or higher are marked rule not met.

compound	assignedCategory
Cn1nc(NS(C)(=O)=O)c2cccc(-c3ccc(C#CC4(O)CNC4)nc3[C@H](Cc3cc(F)cc(F)c3)NC(=O)Cn3nc(C(F)(F)F)c4c3C(F)(F)[C@@H]3C[C@H]43)c21 [Compound 22C]	rule not met
Cn1nc(NS(C)(=O)=O)c2c(Cl)ccc(-c3ccc(C#CC4(C)CNCCO4)nc3[C@H](Cc3cc(F)cc(F)c3)NC(=O)Cn3nc(C(F)F)c4c3C(F)(F)[C@@H]3C[C@H]43)c21 (some centres unmarked) [Compound 77]	rule met
Cn1ccnc1C(C)(C)C#Cc1ccc(-c2ccc(Cl)c3c(NS(C)(=O)=O)nn(C)c23)c([C@H](Cc2cc(F)cc(F)c2)NC(=O)Cn2nc(C(F)F)c3c2C(F)(F)[C@@H]2C[C@H]32)n1 [Compound 92B]	rule not met
NC(=O)c1cc(-c2ccc(C#CC3(O)CC(F)(F)C3)nc2[C@H](Cc2cc(F)cc(F)c2)NC(=O)Cn2nc(C(F)F)c3c2C(F)(F)[C@@H]2C[C@H]32)ccc1F [Compound 106C]	rule met

Find out if reported CC50 at 5 days for Cn1nc(NS(C)(=O)=O)c2c(Cl)ccc(-c3ccc(C#CC(C)(O)Cn4cncn4)nc3[C@H](Cc3cc(F)cc(F)c3)NC(=O)Cn3nc(C(F)(F)F)c4c3C(F)(F)[C@@H]3C[C@H]43)c21 (some centres unmarked) [Compound 70B] is less than 8 µM
rule not met

* * *

assay: Test B: Cytotoxicity Assay; assay type: cell-based; details: human, uninfected MT-4 cells, CellTiter-Glo
observedProperty: CC50 at 5 days (µM)
Hi! Could you send only the number? It should be in µM, unit omitted.

Example entries and their recorded answers appear below.
compound	observedProperty	measured
Cc1nccn1C(C)(C)C#Cc1ccc(-c2ccc(Cl)c3c(NS(C)(=O)=O)nn(C)c23)c([C@H](Cc2cc(F)cc(F)c2)NC(=O)Cn2nc(C(F)(F)F)c3c2C(F)(F)[C@@H]2C[C@H]32)n1	CC50 at 5 days	3.04
NC(=O)c1cc(-c2ccc(C#CC3(O)CCOCC3)nc2[C@H](Cc2cc(F)cc(F)c2)NC(=O)Cn2nc(C(F)(F)F)c3c2C(F)(F)[C@@H]2C[C@H]32)ccc1F	CC50 at 5 days	10.1
Cn1nc(N)c2cccc(-c3ccc(C#CC4(O)CCOCC4)nc3[C@H](Cc3cc(F)cc(F)c3)NC(=O)Cn3nc(C(F)(F)F)c4c3C(F)(F)[C@@H]3C[C@H]43)c21	CC50 at 5 days	15.8
Cn1nc(NS(C)(=O)=O)c2c(Cl)ccc(-c3ccc(C#CC(O)C4CNC4)nc3[C@H](Cc3cc(F)cc(F)c3)NC(=O)Cn3nc(C(F)(F)F)c4c3C(F)(F)[C@@H]3C[C@H]43)c21 (stereo partly shown)	CC50 at 5 days	19.3

I'd like to know its CC50 at 5 days. The compound in question is CC(=O)N1CCCC1C#Cc1ccc(-c2ccc(Cl)c3c(NS(C)(=O)=O)nn(C)c23)c([C@H](Cc2cc(F)cc(F)c2)NC(=O)Cn2nc(C(F)(F)F)c3c2C(F)(F)[C@@H]2C[C@H]32)n1 (stereo partly shown)
9.94

I'd like to know its CC50 at 5 days. The compound in question is Cn1nc(NS(C)(=O)=O)c2c(Cl)ccc(-c3ccc(C#CC4CNCCO4)nc3[C@H](Cc3cc(F)cc(F)c3)NC(=O)Cn3nc(C(F)(F)F)c4c3C(F)(F)[C@@H]3C[C@H]43)c21 (stereo partly shown) [Compound 53B]
6.81

I'd like to know its CC50 at 5 days. The compound in question is Cn1nc(N)c2cccc(-c3ccc(C#CC4(O)CCC4)nc3[C@H](Cc3cc(F)cc(F)c3)NC(=O)Cn3nc(C(F)(F)F)c4c3C(F)(F)[C@@H]3C[C@H]43)c21
9.92

I'd like to know its CC50 at 5 days. The compound in question is CN1CCC(O)(C#Cc2ccc(-c3cccc4c(NS(C)(=O)=O)nn(C)c34)c([C@H](Cc3cc(F)cc(F)c3)NC(=O)Cn3nc(C(F)(F)F)c4c3C(F)(F)[C@@H]3C[C@H]43)n2)CC1
20.2
